The values you see were collected from patent US11453711B2.

Experiment: Pharmacokinetic measurement in mouse, single sc dose 30 nmol/kg, plasma ELISA
Details: single sc dose 30 nmol/kg
Reported Tmax values follow for various molecules
State just the number; it will be interpreted in h.

For orientation, consider the following solved cases.
# molecule, Tmax [h]
records = [
    ("MLC074: fusion polypeptide SEQ ID NO: 369 conjugated with Moiety B at 41C of Linker (conjugate, Moiety B conjugated at linker C41) HGEGTFTSDVSSYLEEQAAKEFIAWLVRGGGGQEPGAQPGQEPGAQPGQEPGAQPGQEPGAQPGQEPGAQPCQEPGAQPGAQPGAQPGAQPGAQPGAQPGAQPGAQPGAQPARQGDHCPLGPGRCCRLHTVRASLEDLGWADWVLSPREVQVTMCIGACPSQFRAANLHAQIKTSLHRLKPDTVPAPCCVPASYNPMVLIQKTDTGVSLQTYDDLLAKDCHCI", 10.7),
    ("MLC019: unconjugated GLP-1/GDF15 fusion protein, linker of at least 80 residues (protein) HGEGTFTSDVSSYLEEQAAKEFIAWLVRGGGGQEPGAQPGQEPGAQPGQEPGAQPGQEPGAQPGQEPGAQPGQEPGAQPGAQPGAQPGAQPGAQPGAQPGAQPGAQPGAQPARQGDHCPLGPGRCCRLHTVRASLEDLGWADWVLSPREVQVTMCIGACPSQFRAANLHAQIKTSLHRLRPDTVPAPCCVPASYNPMVLIQRTDTGVSLQTYDDLLARDCHCI", 4.0),
]

Entry under review: MLC005: fusion polypeptide SEQ ID NO: 252 conjugated with Moiety A at 12K of Linker (conjugate, Moiety A conjugated at linker K12) HGEGTFTSDVSSYLEEQAAREFIAWLVRGGGGQEPGQEPGQEKGQEPGQEPGQEPGQEPGQEPGAQPGAQPARQGDHCPLGPGRCCRLHTVRASLEDLGWADWVLSPREVQVTMCIGACPSQFRAANLHAQIKTSLHRLRPDTVPAPCCVPASYNPMVLIQRTDTGVSLQTYDDLLARDCHCI . Reported Tmax?
2.0

Entry under review: MLC047: fusion polypeptide SEQ ID NO: 330 conjugated with Moiety A at 40K of linker (conjugate) HGEGTFTSDVSSYLEEQAAREFIAWLVRGGGGQEPGAQPGQEPGAQPGQEPGAQPGQEPGAQPGQEPGAQKGQEPGAQPGAQPGAQPGAQPGAQPGAQPGAQPGAQPGAQPARQGDHCPLGPGRCCRLHTVRASLEDLGWADWVLSPREVQVTMCIGACPSQFRAANLHAQIKTSLHRLRPDTVPAPCCVPASYNPMVLIQRTDTGVSLQTYDDLLARDCHCI . Reported Tmax?
10.7
